target system: T1, human TIGIT expressed on CHO-K1 cells (human, UniProt Q495A1 22-244)
T1 construct: whole, on cells; also called human TIGIT-CHO-K1 cells; human TIGIT over-expressing cell line
T1 sequence (looked up): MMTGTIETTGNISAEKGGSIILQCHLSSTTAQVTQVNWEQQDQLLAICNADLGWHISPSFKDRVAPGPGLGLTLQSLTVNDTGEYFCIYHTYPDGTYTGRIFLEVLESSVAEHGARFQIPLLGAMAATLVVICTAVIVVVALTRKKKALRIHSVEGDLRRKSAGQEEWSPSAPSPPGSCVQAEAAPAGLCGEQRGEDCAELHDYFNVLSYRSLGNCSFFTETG
test: flow cytometry on CHO-K1 cells expressing human TIGIT
observation type: EC50 (nM)

# binder, observation type, units symbol, numeric value
records = [
    ("huTIGIT-3-1 (antibody, human IgG1, kappa, V domains shown, Humanized IgG; also called 3VH3.M4 + 3VL4.M6) VH: EVQLVESGGGLVQPGGSLRLSCAASGFTFSSYGMSWVRQAPGKGLELVATIKSSGGSTNLADSVKGRFTISRDNSKNTLYLQMNSLRAEDTAVYYCVRGYFDYWGQGTTVTVSS VL: DIQMTQSPSSLSASVGDRVTITCRASQDIKTALAWYQQKPGKSPKLLIYWASTRQSGVPSRFSGSGSGTDFTLTISSLQPEDVATYYCQQYYSTPYTFGGGTKVEIKR", "EC50", "nM", 0.511),
]
